system: SK-OV-3 ovarian; assay: NCI tumour cell line growth inhibition, 48 h
Entries and their TGI

Some entries whose results are on file:
compound=Cc1ccc(S(=O)(=O)N2C/C(=C\c3cc(F)cc(F)c3)C(=O)/C(=C/c3cc(F)cc(F)c3)C2)cc1 system_name="SK-OV-3 ovarian" measured="7.53 µM"
compound="CCOC(=O)C1=C(N)Oc2cc(OC)ccc2C1c1ccc(F)c(F)c1 (configuration not stated)" system_name="SK-OV-3 ovarian" measured="16.4 µM"
compound="CCC(CCCCC1CC[C@H]2CC(=O)C[C@@H]12)OC (some centres not stated)" system_name="SK-OV-3 ovarian" measured="> 100 µM"
compound=O=c1[nH]c(C2CCCCC2)nc2cc(Cl)ccc12 system_name="SK-OV-3 ovarian" measured="> 100 µM"

Provide only the value of recorded TGI for [O-][n+]1onc2c1-c1nonc1CC2
> 100 µM

Provide only the value of recorded TGI for Cc1ccc(C2CC(c3cccc(Nc4ccncc4)c3)=NN2c2ccc(Cl)cc2)cc1 (configuration not stated)
3.17 µM
